Target: human OX2 receptors (Homo sapiens, UniProt O43614)
Sequence (O43614 whole entry): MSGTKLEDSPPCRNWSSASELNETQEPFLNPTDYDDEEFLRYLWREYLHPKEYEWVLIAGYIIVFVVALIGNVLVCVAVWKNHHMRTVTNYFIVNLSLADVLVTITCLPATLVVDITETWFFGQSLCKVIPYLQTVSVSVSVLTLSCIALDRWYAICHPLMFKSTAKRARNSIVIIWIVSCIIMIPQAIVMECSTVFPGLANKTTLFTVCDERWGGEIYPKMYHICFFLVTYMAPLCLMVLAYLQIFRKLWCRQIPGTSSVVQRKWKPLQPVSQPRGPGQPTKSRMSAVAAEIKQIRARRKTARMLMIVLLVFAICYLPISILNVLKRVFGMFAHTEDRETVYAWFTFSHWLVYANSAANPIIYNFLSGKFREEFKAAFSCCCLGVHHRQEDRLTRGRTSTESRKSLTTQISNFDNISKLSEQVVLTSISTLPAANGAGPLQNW
Test: Calcium mobilization Ke assay
Type: cell-based
Reported Kb values follow for various compounds

Compound: CCCOc1ccc(CC2c3cc(OC)c(OC)cc3CCN2CC(=O)NCc2ccccc2)cc1 (stereo not drawn) [Compound 45]
System Under Test: human OX2 receptors (Homo sapiens, UniProt O43614)
Reported Result: > 10 µM
--
Compound: CCCCCCOc1ccc(CC2c3cc(OC)c(OC)cc3CCN2CC(=O)NCc2ccccc2)cc1OC (stereo not drawn) [Compound 14]
System Under Test: human OX2 receptors (Homo sapiens, UniProt O43614)
Reported Result: > 10 µM

Below: the item to evaluate.
Note to self: Kb recorded for COc1cc2c(cc1OC)C(Cc1cccc([N+](=O)[O-])c1)N(CC(=O)NCc1ccccc1)CC2 (stereo not drawn) [Compound 42] was 1.2 µM
